# EXPERIMENTAL SYSTEM: Nuclear receptor coactivator 1 (Homo sapiens)
# TEST PROTOCOL: SRC1 (NCOA1) coactivator inhibitors, dose response, cell-based, luciferase reporter, luminescence (AID 602235);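 further: cells transfected with pGL4.31 reporter plus pBIND-SRC1 vector; potency is for inhibitors that lower SRC1 reporter luminescence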
The source made the active and inactive calls. How the calls were made is not given here.
The reply should be one of these categories: active, inactive

Answered examples (8):
Cc1c(CC(=O)NCCCC(=O)O)c(=O)oc2cc3c(cc12)CCC(C)(C)O3 = inactive
CN(Cc1cnc2nc(N)nc(N)c2n1)c1ccc(C(=O)NC(CCC(=O)O)C(=O)O)cc1 (configuration not stated) = inactive
CC1(C)Cc2c(ccc3ccccc23)C(=O)N1 = inactive
CCN1CCN(C(=S)c2ccc(-c3ccccc3)cc2)CC1 = inactive
CC(C)(C)OC(=O)NCC(=O)Oc1cc2oc(=O)cc(-c3ccccc3)c2cc1Cl = inactive
O=C(N/N=C/c1coc2ccc(Cl)cc2c1=O)c1ccc(O)cc1 = inactive
COc1cccc(C2=CC(=O)CC(C)(C)C2)c1 = inactive
COc1cc2c(cc1OC)C(NC(=O)C(F)(F)F)CNC2=O (configuration not stated) = active

Ask: Per the records of this test, what outcome belongs to Cc1nc2c(-c3ccc(F)cc3)cnn2c(N)c1-c1ccccc1 ?
Reply: inactive

Ask: Check the results log: what was the call for Nc1ccc(-c2cc3ccccc3oc2=O)cc1 ?
Reply: active

Ask: State the result this test recorded for Cc1cccc(C)c1-c1ccc(CN2C(CC(C)C)C(=O)N(Cc3cn(CC4CCCCC4)nn3)CCS2(=O)=O)cc1 (configuration not stated) .
Reply: inactive

Ask: Short answer needed: outcome of this test for c1cc2c(cn1)cnc1cscc12 ?
Reply: inactive

Ask: Recorded call for Cc1cc(/C=C2\Cc3ccccc3C2=O)c(C)n1-c1ccccc1 ?
Reply: inactive

Ask: Identify the outcome logged in this assay for the molecule shown: O=C(Nc1nc(-c2ccccn2)cs1)c1cccc(S(=O)(=O)N2CCOCC2)c1
Reply: inactive

Ask: Dear colleague, could you share the recorded outcome for COc1ccc2c(=O)cc(-c3ccncc3)oc2c1OC when you have a moment?
Reply: inactive

Ask: Identify the outcome logged in this assay for the molecule shown: O=C1CCC/C1=c1\s/c(=C/c2cccnc2)c(=O)n1-c1ccccc1
Reply: inactive

Ask: Which outcome was entered for the molecule NC(=O)c1cc(Sc2ccccc2)nc2ccccc12 in this test?
Reply: active

* * *

# EXPERIMENTAL SYSTEM: UniProt:Q15788
# TEST PROTOCOL: SRC1 (NCOA1) coactivator inhibitors, dose response, cell-based, luciferase reporter, luminescence (AID 602235);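 further: cells transfected with pGL4.31 reporter plus pBIND-SRC1 vector; potency is for inhibitors that lower SRC1 reporter luminescence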
Calls of active or inactive are those of the source. The rule behind the calls is not given here.
One label from this list, please: y = active, n = inactive

Here are 10 compounds together with their reported answers.
CCCCC(=O)Nc1cccn2ncnc12 = n
CN(C)C(=O)c1ccc(-c2n[nH]c(=O)c3ccccc23)cc1 = n
C=CCn1c(O)c(C(C)=NCc2cc(OC)cc(OC)c2)c(=O)[nH]c1=O = n
Cc1ccc(O)c(Nc2ncnc3ccc([N+](=O)[O-])cc23)c1 = n
COc1ccc2c(C#N)c3ccccn3c2c1 = n
Cc1cccn2c(=O)c3cc(C(=O)NCCN4CCOCC4)c(=N)n(Cc4cccnc4)c3nc12 = n
Nc1ccc(Oc2ccccc2-c2ccccc2)cc1 = n
CCc1ccc(-c2nc(CSCC(=O)NCc3ccco3)c(C)o2)cc1 = n
CCc1c(C)nc2c(C)cccc2c1SCCC#N = n
CCN(CC)CCNC(=O)c1ccc(NC(=O)C2CCN(c3ncnc4sc(C)c(C)c34)CC2)cc1 = y

Ask: Outcome logged for CC1CCN(C(=O)c2scc3c2OCCO3)CC1 in this assay:
Reply: n

Ask: Answer briefly: the call reported for CCc1nc(N)nc(N)c1-c1ccc(Cl)c([N+](=O)[O-])c1 in this assay.
Reply: y

Ask: Name the outcome recorded for COc1ccc(Nc2ncnc3ccc(Br)cc23)c(OC)c1 in the assay.
Reply: y

Ask: Can you look up the reported call for O=C(Nc1nc(-c2ccccn2)cs1)c1cccc(-n2cnnn2)c1 for me?
Reply: n

Ask: Please share the test call associated with COc1cccc(/C=N/NC(=O)C(=O)Nc2ccccc2OC(F)(F)C(F)F)c1O .
Reply: y

* * *

# EXPERIMENTAL SYSTEM: Nuclear receptor coactivator 1 (Homo sapiens) (UniProt Q15788)
# Sequence (Q15788 whole entry, looked up): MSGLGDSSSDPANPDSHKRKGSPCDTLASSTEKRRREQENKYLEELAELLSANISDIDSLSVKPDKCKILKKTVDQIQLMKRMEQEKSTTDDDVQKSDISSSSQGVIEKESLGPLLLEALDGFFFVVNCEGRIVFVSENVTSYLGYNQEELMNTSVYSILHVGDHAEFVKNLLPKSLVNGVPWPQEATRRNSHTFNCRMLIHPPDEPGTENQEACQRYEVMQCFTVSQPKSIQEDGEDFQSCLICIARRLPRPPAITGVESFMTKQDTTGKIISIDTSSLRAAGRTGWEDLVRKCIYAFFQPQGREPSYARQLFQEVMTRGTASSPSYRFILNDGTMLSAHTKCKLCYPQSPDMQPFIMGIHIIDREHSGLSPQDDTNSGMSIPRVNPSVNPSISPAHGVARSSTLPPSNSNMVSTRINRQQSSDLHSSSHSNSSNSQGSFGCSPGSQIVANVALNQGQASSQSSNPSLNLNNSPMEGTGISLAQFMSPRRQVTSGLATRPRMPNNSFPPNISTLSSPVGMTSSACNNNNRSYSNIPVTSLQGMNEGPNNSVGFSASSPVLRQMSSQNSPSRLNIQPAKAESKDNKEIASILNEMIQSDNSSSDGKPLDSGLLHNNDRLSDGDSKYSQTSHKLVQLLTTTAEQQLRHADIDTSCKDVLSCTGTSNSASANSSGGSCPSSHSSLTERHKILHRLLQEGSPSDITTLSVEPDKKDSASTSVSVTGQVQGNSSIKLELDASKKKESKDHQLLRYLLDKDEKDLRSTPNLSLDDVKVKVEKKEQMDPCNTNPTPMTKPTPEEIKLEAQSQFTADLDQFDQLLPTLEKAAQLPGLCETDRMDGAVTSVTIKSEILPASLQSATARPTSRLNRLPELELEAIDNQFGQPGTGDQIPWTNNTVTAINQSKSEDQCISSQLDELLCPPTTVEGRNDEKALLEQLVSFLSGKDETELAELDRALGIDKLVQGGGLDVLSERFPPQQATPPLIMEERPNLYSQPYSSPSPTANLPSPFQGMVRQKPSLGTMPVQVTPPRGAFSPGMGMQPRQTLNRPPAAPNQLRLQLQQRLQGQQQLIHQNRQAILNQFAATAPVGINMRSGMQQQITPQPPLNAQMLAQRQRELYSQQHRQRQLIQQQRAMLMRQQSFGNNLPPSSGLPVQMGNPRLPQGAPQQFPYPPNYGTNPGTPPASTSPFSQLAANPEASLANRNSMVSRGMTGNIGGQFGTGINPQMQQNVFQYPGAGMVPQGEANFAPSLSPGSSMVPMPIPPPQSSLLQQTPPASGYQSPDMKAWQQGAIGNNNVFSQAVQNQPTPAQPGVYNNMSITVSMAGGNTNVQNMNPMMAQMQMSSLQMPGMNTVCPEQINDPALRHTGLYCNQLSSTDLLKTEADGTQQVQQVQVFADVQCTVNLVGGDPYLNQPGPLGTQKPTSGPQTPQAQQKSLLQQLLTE
# TEST PROTOCOL: SRC1 (NCOA1) coactivator inhibitors, dose response, cell-based, luciferase reporter, luminescence (AID 602235);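 further: cells transfected with pGL4.31 reporter plus pBIND-SRC1 vector; potency is for inhibitors that lower SRC1 reporter luminescence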
Activity calls are given as the source filed them. The rule behind the calls is not given here.
METRIC: IC50

Cc1nn(C(C)(C)C)c(C)c1/C=N/OC(=O)Nc1ccc(Cl)c(Cl)c1 = inactive
Cc1cc(=O)[nH]c(Nc2cccc(Br)c2)n1 = inactive
CCOC(=O)CC(=O)CSc1nccc(-c2cccnc2)n1 = inactive
O=C(OC(c1ccccc1)c1nccc2ccccc12)c1ccccc1 (centres undefined) = > 11.9 µM (inactive)

* * *

# EXPERIMENTAL SYSTEM: UniProt Q15788
# TEST PROTOCOL: SRC1 (NCOA1) coactivator inhibitors, dose response, cell-based, luciferase reporter, luminescence (AID 602235);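 further: cells transfected with pGL4.31 reporter plus pBIND-SRC1 vector; potency is for inhibitors that lower SRC1 reporter luminescence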
Active and inactive are the calls of the source. How the calls were made is not given here.
Your answer must be one of the following: active, inactive

Cc1ccc(C(=O)Nc2sc(C)c(-c3ccccc3)c2C(N)=O)cc1[N+](=O)[O-] = inactive
O=C(CCl)N1N=C(c2cccs2)CC1c1ccco1 (stereo unspecified) = inactive
CNc1cccnc1C=NNC(N)=S = active
Cc1nn(CC(=O)N2CCN(c3cccc(C(F)(F)F)c3)CC2)c(=O)c2cccn12 = inactive
O=C(Nc1c(-c2ccccc2)[nH][nH]c1=O)c1cccc(C(F)(F)F)c1 = inactive
CCC(=O)Oc1c(C(=O)CC)cc2c(C)cc(=O)oc2c1C = inactive

Ask: So what was the verdict on Cc1sc2ncnc(N3CCC(C(=O)Nc4cc(S(C)(=O)=O)ccc4Cl)CC3)c2c1C in this test?
Reply: inactive

Ask: Per the assay record, what outcome was assigned to Cc1ccc2nc(C(F)(F)F)c(C#N)c(N)c2c1 ?
Reply: inactive

Ask: How was COc1ccc2ncn(-c3ccccc3)c2c1 classified in this test?
Reply: active

Ask: Please share the test call associated with Cc1ccc(OCC(=O)c2cc(C)n(-c3ccccc3)c2C)c([N+](=O)[O-])n1 .
Reply: inactive

Ask: Give the logged outcome of this assay for the following compound: CC(C)(C)c1cc(C(=O)N/N=C/c2ccc(O)cc2)n(-c2ccccc2)n1
Reply: inactive
